All figures here come from ChEMBL document CHEMBL1145726.

Each item that follows carries a reported MIC95.
- Tested on: Escherichia coli
- Procedure Summary: In vitro antibacterial activity was determined
- Assay type: functional

For orientation, consider the following solved cases.
- Cpd Smiles: "C[C@H](O)[C@@H](NC(=O)[C@@H](NC(=O)c1csc(-c2ccccc2)n1)[C@@H](C)O)c1nc(C(=O)O)cs1"
  MIC95: "> 200 µg/mL"
- Cpd Smiles: "C=C(NC(=O)C(=C)NC(=O)c1csc(C2=N[C@@H]3c4csc(n4)[C@H]4NC(=O)c5csc(n5)[C@H]([C@](C)(O)[C@@H](C)O)NC(=O)[C@H]5CSC(=N5)/C(=C/C)NC(=O)[C@H]([C@@H](C)O)NC(=O)c5csc(n5)[C@]3(CC2)NC(=O)[C@H](C)NC(=O)C(=C)NC(=O)[C@H](C)NC(=O)[C@H]([C@@H](C)CC)N[C@@H]2C=Cc3c([C@H](C)O)cc(nc3[C@H]2O)C(=O)O[C@@H]4C)n1)C(N)=O"
  MIC95: "0.015 µg/mL"
- Cpd Smiles: "CC(C)[C@@H](NC(=O)[C@@H](NC(=O)c1csc(-c2ccccc2)n1)[C@@H](C)O)c1nc(C(=O)NCc2ccc3c(c2)OCO3)cs1"
  MIC95: "> 200 µg/mL"
- Cpd Smiles: "CC[C@@H](NC(=O)[C@@H](NC(=O)c1csc(-c2ccccc2)n1)[C@@H](C)O)c1nc(C(=O)NCc2ccc3c(c2)OCO3)cs1"
  MIC95: "> 200 µg/mL"
- Cpd Smiles: "CC(C)[C@@H](NC(=O)[C@@H](NC(=O)c1csc(-c2ccccc2)n1)[C@@H](C)O)c1nc(C(=O)NCCCO)cs1"
  MIC95: "> 200 µg/mL"

Entry C[C@H](O)[C@H](NC(=O)c1csc(-c2ccccc2)n1)c1nc(C(=O)N2CCN(CCOCCO)CC2)cs1 has what MIC95? > 200 µg/mL
